Test system: Finegoldia magna
Test: Antimicrobial activity against Finegoldia magna under anaerobic conditions after 44 hrs by CLSI-M11-47 protocol based agar dilution method
Type: functional
RESULT_TYPE: MIC90 (µg/mL)
API: value field is a number in µg/mL; no unit string.

CCO/N=C(\C(=O)N[C@@H]1C(=O)N2C(C(=O)[O-])=C(Sc3nc(-c4cc[n+](C)cc4)cs3)CS[C@H]12)c1nsc(NP(=O)(O)O)n1 [CEFTAROLINE FOSAMIL]	0.5
Cc1ncc([N+](=O)[O-])n1CCO [METRONIDAZOLE]	1

Field: next compound
Query :: Could you please provide reported MIC90 for CO/N=C(\C(=O)N[C@@H]1C(=O)N2C(C(=O)O)=C(CSc3nc(=O)c(O)nn3C)CS[C@H]12)c1csc(N)n1 [CEFTRIAXONE] ? Thanks!
Result :: 8

* * *

Listed below: MIC50 values for each entry.
System: Eubacterium limosum
Assay: Antimicrobial activity against Eubacterium limosum under anaerobic conditions after 44 hrs by CLSI-M11-47 protocol based agar dilution method
Assay type: functional
API: value field is a number in µg/mL; no unit string.

CCC[C@@H]1C[C@@H](C(=O)N[C@@H]([C@H]2O[C@H](SC)[C@H](O)[C@@H](O)[C@H]2O)[C@H](C)Cl)N(C)C1	0.06
CCO/N=C(\C(=O)N[C@@H]1C(=O)N2C(C(=O)[O-])=C(Sc3nc(-c4cc[n+](C)cc4)cs3)CS[C@H]12)c1nsc(NP(=O)(O)O)n1	0.125
Cc1ncc([N+](=O)[O-])n1CCO	0.5

Field: next compound
Query :: Could you please provide reported MIC50 for CO/N=C(\C(=O)N[C@@H]1C(=O)N2C(C(=O)O)=C(CSc3nc(=O)c(O)nn3C)CS[C@H]12)c1csc(N)n1 ? Thanks!
Result :: 0.5

* * *

System: Prevotella bivia
Experiment: Antimicrobial activity against Prevotella bivia under anaerobic conditions after 44 hrs by CLSI-M11-47 protocol based agar dilution method
Format: functional
RESULT_TYPE: MIC90 (µg/mL)
API: value field is a number in µg/mL; no unit string.

CCO/N=C(\C(=O)N[C@@H]1C(=O)N2C(C(=O)[O-])=C(Sc3nc(-c4cc[n+](C)cc4)cs3)CS[C@H]12)c1nsc(NP(=O)(O)O)n1	64

Query :: Could you please provide reported MIC90 for Cc1ncc([N+](=O)[O-])n1CCO ? Thanks!
Result :: 2

* * *

System: Prevotella denticola
Assay: Antimicrobial activity against Prevotella denticola under anaerobic conditions after 44 hrs by CLSI-M11-47 protocol based agar dilution method
Format: functional
RESULT_TYPE: MIC50 (µg/mL)
API: value field is a number in µg/mL; no unit string.

Worked examples, 2 compounds total:
CCO/N=C(\C(=O)N[C@@H]1C(=O)N2C(C(=O)[O-])=C(Sc3nc(-c4cc[n+](C)cc4)cs3)CS[C@H]12)c1nsc(NP(=O)(O)O)n1	2
Cc1ncc([N+](=O)[O-])n1CCO	0.5

Field: next compound
Query :: Could you please provide reported MIC50 for CO/N=C(\C(=O)N[C@@H]1C(=O)N2C(C(=O)O)=C(CSc3nc(=O)c(O)nn3C)CS[C@H]12)c1csc(N)n1 ? Thanks!
Result :: 1

* * *

System: Clostridium tertium
Assay: Antimicrobial activity against Clostridium tertium under anaerobic conditions after 44 hrs by CLSI-M11-47 protocol based agar dilution method
Format: functional
Listed below: MIC50 values for each entry.
Remember to quote the unit after the number.

Worked examples, 3 molecules total:
CCO/N=C(\C(=O)N[C@@H]1C(=O)N2C(C(=O)[O-])=C(Sc3nc(-c4cc[n+](C)cc4)cs3)CS[C@H]12)c1nsc(NP(=O)(O)O)n1	0.5 µg/mL
Cc1ncc([N+](=O)[O-])n1CCO	0.5 µg/mL
CCC[C@@H]1C[C@@H](C(=O)N[C@@H]([C@H]2O[C@H](SC)[C@H](O)[C@@H](O)[C@H]2O)[C@H](C)Cl)N(C)C1	2 µg/mL

Field: next molecule
Query :: Could you please provide reported MIC50 for CO/N=C(\C(=O)N[C@@H]1C(=O)N2C(C(=O)O)=C(CSc3nc(=O)c(O)nn3C)CS[C@H]12)c1csc(N)n1 ? Thanks!
Result :: 2 µg/mL
